All values here come from patent US12209096B2.

Consider the following compounds and their measured Emax readings.
- System: human chondrogenic progenitor cell (CPCs)
- method.description: Collagen type II assay (chondrogenic differentiation)
- Format: cell-based
- condition.info: 432 h, hCPCs, 18 days, read-out: (B) % Efficacy
- Method: To initiate chondrogenesis in primary CPCs, 8000 cells were plated/well in a Costar 96 well plate in MSCGM. After 24 hours the MSCGM was removed and replaced with DMEM containing 1% FBS. The test compound was then added to each well at the indicated dose. The cultures were grown at 37° C. for 18 days. […] The total intensity of staining was imaged by fluoresecent microscopy and/or quantified by high content imagining with the ImageXpress Micro (Molecular Devices, Sunnyvale, CA). […]
// units = %; emit number, no label

Measured Emax of Cc1cc([C@H]2[C@H]3O[C@H](C[C@@H]3O)[C@H]2C(=O)Nc2ccc(Cl)c(Cl)c2)ccn1 (single isomer, unassigned) [Example 53a] : 44

Emax recorded for this compound, O=C(Nc1ccc(Cl)c(Cl)c1)[C@H]1[C@@H](c2ccnc(F)c2)[C@H]2O[C@@H]1C[C@@H]2O (single isomer, unassigned) [Example 52a] , is 80

Given item O=C(Nc1ccc(Cl)c(Cl)c1)[C@H]1[C@@H](c2ccncc2)[C@H]2O[C@@H]1C[C@@H]2O (single isomer, unassigned) [Example 47a] , the value recorded as its Emax is 82

Sample Cc1cc([C@H]2[C@H]3O[C@H]([C@H](O)[C@@H]3O)[C@@H]2C(=O)Nc2ccc(Cl)c(Cl)c2)ccn1 (single isomer, unassigned) ; Emax observed: 99

====

- method.description: intrinsic clearance in human liver microsomes
- Assay type: in vitro ADME
// reported microsomal CLint per item
Answer with the figure and its unit, nothing else.

| compound | microsomal CLint |
| --- | --- |
| O=C(Nc1ccc(Cl)c(Cl)c1)[C@H]1[C@@H](c2ccncc2)[C@@H]2CC[C@H]1O2 [reference compound] | 202 µL/min/mg |
| O=C(Nc1ccc(Cl)c(Cl)c1)[C@H]1[C@@H](c2ccncc2)[C@H]2O[C@@H]1C[C@@H]2O | 7 µL/min/mg |
| Nc1cc([C@H]2[C@H]3O[C@H](C[C@@H]3O)[C@@H]2C(=O)Nc2ccc(Cl)c(Cl)c2)ccn1 [drawing 199] | 7 µL/min/mg |

Let us move to another entry and its microsomal CLint.
Kindly note the recorded microsomal CLint for Nc1cc([C@@H]2[C@@H](C(=O)Nc3ccc(Cl)c(Cl)c3)[C@H]3CC[C@@H]2O3)ccn1 [reference compound] , which is 38 µL/min/mg

====

# IC50 listing for each entry below
- Tested on: normal human articular chondrocytes (NHACs)
- method.description: alkaline phosphatase assay in NHAC
- Type: cell-based
- condition.info: Homo sapiens, Chondrocyte, 240 h, 10 days, read-out: (C) IC50
Response body: numeric value in µM, unit text excluded.

Examples with their reported IC50 follow.
| molecule | meas.value |
| --- | --- |
| Cc1cc([C@H]2[C@H]3O[C@H](C[C@@H]3O)[C@@H]2C(=O)Nc2cnc(Cl)c(Cl)c2)ccn1 (single isomer, unassigned) | 12 |
| Cc1cc([C@H]2[C@H]3O[C@H]([C@H](O)[C@@H]3O)[C@@H]2C(=O)Nc2ccc(Cl)c(Cl)c2)ccn1 (single isomer, unassigned) | 15 |
| Cc1cc([C@H]2[C@H]3O[C@H](C[C@@H]3O)[C@@H]2C(=O)Nc2ccc(Cl)c(Cl)c2)ccn1 (single isomer, unassigned) [Example 77a] | 3.5 |
| O=C(Nc1ccc(Cl)c(Cl)c1)[C@H]1[C@@H](c2ccnc(F)c2)[C@H]2O[C@@H]1C[C@@H]2O (single isomer, unassigned) [Example 52a] | 17 |
| Cc1cc([C@@H]2[C@@H]3O[C@@H]([C@@H](O)[C@H]3O)[C@H]2C(=O)Nc2ccc(Cl)c(Cl)c2)ccn1 (single isomer, unassigned) | 32 |

Continue with the molecule presented below.
Form field IC50, entry O=C(Nc1ccc(Cl)c(Cl)c1)[C@H]1[C@@H](c2ccncc2)[C@H]2O[C@@H]1C[C@@H]2O (single isomer, unassigned) [Example 47a] : 33

====

- target.of.assay: normal human articular chondrocytes (NHACs)
- method.description: alkaline phosphatase assay in NHAC
- Format: cell-based
- condition.info: 10 days, read-out: (C) IC50
readout.kind: pIC50
As a rule, pIC50 stands for the negative log10 of the concentration, concentration in M.

// O=C(Nc1ccc(Cl)c(Cl)c1)[C@@H]1[C@@H]2O[C@@H]([C@H]3C[C@H]32)[C@@H]1c1cncnc1 : pIC50 value = 4.47

====

- Tested on: human chondrogenic progenitor cell (CPCs)
- method.description: Collagen type II assay (chondrogenic differentiation)
- Type: cell-based
- condition.info: 432 h, hCPCs, 18 days, read-out: (B) % Efficacy
readout.kind: Emax

| compound | target.of.assay | readout.kind | meas.value |
| --- | --- | --- | --- |
| Cc1cc([C@H]2[C@H]3O[C@H](C[C@H]3N3CCOCC3)[C@@H]2C(=O)Nc2ccc(Cl)c(Cl)c2)ccn1 | human chondrogenic progenitor cell (CPCs) | Emax | 34% |
| Cc1cc([C@H]2[C@H]3O[C@H]([C@@H]4C[C@@H]43)[C@H]2C(=O)Nc2ccc(Cl)c(Cl)c2)ccn1 (single isomer, unassigned) [Example 23a] | human chondrogenic progenitor cell (CPCs) | Emax | 29% |

Emax for O=C(Nc1cnc(Cl)c(Cl)c1)[C@@H]1[C@@H](c2ccnc(F)c2)[C@H]2O[C@@H]1C[C@@H]2O (single isomer, unassigned) [Example 90a] is 65%

====

- Test system: normal human articular chondrocytes (NHACs)
- method.description: alkaline phosphatase assay in NHAC
- Format: cell-based
- condition.info: Homo sapiens, Chondrocyte, 240 h, 10 days, read-out: (C) IC50
readout.kind: IC50 (µM)
Give the quantity in µM, number only.

| compound | target.of.assay | readout.kind | meas.value |
| --- | --- | --- | --- |
| O=C(Nc1cccc(C(F)(F)F)c1)[C@H]1[C@@H](c2ccncc2)[C@H]2O[C@@H]1C[C@@H]2O (single isomer, unassigned) [Example 11a] | normal human articular chondrocytes (NHACs) | IC50 | 48 |
| O=C(Nc1ccc(Cl)c(Cl)c1)[C@@H]1[C@@H](c2ccnc(F)c2)[C@H]2O[C@@H]1C[C@@H]2O (single isomer, unassigned) [Example 142a] | normal human articular chondrocytes (NHACs) | IC50 | 33 |
| Cc1cc([C@H]2[C@H]3O[C@H](C[C@@H]3O)[C@H]2C(=O)Nc2ccc(Cl)c(Cl)c2)ccn1 (single isomer, unassigned) [Example 53a] | normal human articular chondrocytes (NHACs) | IC50 | 31 |

Field IC50 (entry Cc1cc([C@H]2[C@H]3O[C@H]([C@@H]4C[C@@H]43)[C@H]2C(=O)Nc2ccc(Cl)c(Cl)c2)ccn1 (single isomer, unassigned) [Example 23a] ) reads 30

====

- System: C3H10T1/2 cell line
- method.description: alkaline phosphatase assay in C3H10T1/2
- Format: cell-based
- condition.info: alkaline phosphatase assay in C3H10T1/2, 6 days; read-out: (D) IC50
pIC50: −log10 of the molar value.
readout.kind: pIC50

For O=C(Nc1ccc(Cl)c(Cl)c1)[C@@H]1[C@@H]2O[C@@H]([C@H]3C[C@H]32)[C@@H]1c1cncnc1 the molecule record lists pIC50 as < 4.70

====

- method.description: intrinsic clearance in rat liver microsomes
- Type: in vitro ADME
readout.kind: microsomal CLint (µL/min/mg)
Quick note: give the figure in µL/min/mg, leave out the unit.

The examples below pair each entry with its known result.
| compound | readout.kind | units.of.measure | meas.value |
| --- | --- | --- | --- |
| O=C(Nc1ccc(Cl)c(Cl)c1)[C@H]1[C@@H](c2ccncc2)[C@@H]2CC[C@H]1O2 [reference compound] | microsomal CLint | µL/min/mg | 466 |
| Nc1cc([C@H]2[C@H]3O[C@H](C[C@@H]3O)[C@@H]2C(=O)Nc2ccc(Cl)c(Cl)c2)ccn1 [drawing 199] | microsomal CLint | µL/min/mg | 11 |
| Nc1cc([C@@H]2[C@@H](C(=O)Nc3ccc(Cl)c(Cl)c3)[C@H]3CC[C@@H]2O3)ccn1 [reference compound] | microsomal CLint | µL/min/mg | 243 |

Shift focus to the following entry.
microsomal CLint reading for O=C(Nc1ccc(Cl)c(Cl)c1)[C@H]1[C@@H](c2ccncc2)[C@H]2O[C@@H]1C[C@@H]2O : 7

====

- Tested on: human chondrogenic progenitor cell (CPCs)
- method.description: Collagen type II assay (chondrogenic differentiation)
- Format: cell-based
- condition.info: 432 h, hCPCs, 18 days, read-out: (B) % Efficacy
readout.kind: Emax (%)
The reply should contain only the number, in %.

The examples below pair each entry with its known result.
| compound | target.of.assay | readout.kind | meas.value |
| --- | --- | --- | --- |
| Cc1cc([C@H]2[C@H]3O[C@H](C[C@@H]3O)[C@@H]2C(=O)Nc2ccc(Cl)c(Cl)c2)ccn1 (single isomer, unassigned) [Example 77a] | human chondrogenic progenitor cell (CPCs) | Emax | 120 |
| O=C(Nc1ccc(Cl)c(Cl)c1)[C@@H]1[C@@H](c2ccnc(F)c2)[C@H]2O[C@@H]1C[C@@H]2O (single isomer, unassigned) [Example 142a] | human chondrogenic progenitor cell (CPCs) | Emax | 83 |
| O=C(Nc1cccc(C(F)(F)F)c1)[C@H]1[C@@H](c2ccncc2)[C@H]2O[C@@H]1C[C@@H]2O (single isomer, unassigned) [Example 11a] | human chondrogenic progenitor cell (CPCs) | Emax | 91 |
| Cc1cc([C@H]2[C@H]3O[C@H](C[C@@H]3O)[C@@H]2C(=O)Nc2cnc(Cl)c(Cl)c2)ccn1 (single isomer, unassigned) [Example 83] | human chondrogenic progenitor cell (CPCs) | Emax | 150 |

Now let's try a different one.
In plain terms, Cc1cc([C@@H]2[C@@H]3O[C@@H]([C@@H](O)[C@H]3O)[C@H]2C(=O)Nc2ccc(Cl)c(Cl)c2)ccn1 (single isomer, unassigned) [Example 157] has a documented Emax of 59
